assay: Pharmacokinetic study in mice
assay.context: male, CD-1, mouse, serum, ip, 30 mg/kg
observed.property: k el (s⁻¹)

1) O=c1ncn2nc(Sc3ccc(F)cc3F)ccc2c1-c1c(Cl)cccc1Cl [neflamapimod, reference compound] ... 1.18e-05

---

assay: Pharmacokinetic study in mice
assay.context: male, CD-1, mouse, serum, ip, 10 mg/kg
observed.property: AUC(0-t) (ng·h/mL)

1) CC(C)Cn1ncc2cc(Cc3ccc(F)cc3F)c(C(=O)NCCN(C)C)cc21 [Compound 94] ... 532
2) CN(C)CCNC(=O)c1cc2c(cnn2CC2CCCCC2)cc1Cc1ccc(F)cc1F [Compound 95] ... 999
